# target of assay: UniProtKB Q8N474
# Sequence (Q8N474 32-314): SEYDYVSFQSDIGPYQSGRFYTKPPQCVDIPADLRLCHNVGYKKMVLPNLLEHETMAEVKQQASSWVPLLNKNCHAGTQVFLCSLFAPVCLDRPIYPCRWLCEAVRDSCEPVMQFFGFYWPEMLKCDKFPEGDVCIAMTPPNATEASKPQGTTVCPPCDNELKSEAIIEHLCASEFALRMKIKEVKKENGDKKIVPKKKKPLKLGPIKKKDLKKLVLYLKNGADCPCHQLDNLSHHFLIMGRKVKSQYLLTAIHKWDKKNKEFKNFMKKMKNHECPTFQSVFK
# experiment: Fluorescence polarization binding assay (competitive displacement of a probe compound from SFRP-1);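 also: test compound competes with a fluorescent probe held by SFRP-1, seen as a drop in probe anisotropy after incubation in darkness, with anisotropy as function of rising compound dose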
# condition notes: fluorescence anisotropy, 45 nM SFRP-1, 20 nM probe
Where a name gives a salt, the structure may show the parent alone.
The following molecules are listed with their measured IC50 values.
assay readout: IC50 (nM)

molecule=N#CCCNS(=O)(=O)c1cc(S(=O)(=O)c2cccc(Cl)c2)ccc1C(F)(F)F target_of_assay="UniProtKB Q8N474" assay_readout=IC50 obs_value=400
molecule="CC(C)(C)c1ccc(C(=O)N2CCC(NS(=O)(=O)c3cc(S(=O)(=O)c4ccccc4)ccc3C(F)(F)F)C2)cc1 (stereo not drawn)" target_of_assay="UniProtKB Q8N474" assay_readout=IC50 obs_value=600
molecule=Cc1cc(C)c(S(=O)(=O)c2ccc(F)cc2)cc1S(=O)(=O)NCCn1ccnc1 target_of_assay="UniProtKB Q8N474" assay_readout=IC50 obs_value=1000
molecule=N#CCCNS(=O)(=O)c1cc(S(=O)(=O)c2ccc(O)cc2)ccc1C(F)(F)F target_of_assay="UniProtKB Q8N474" assay_readout=IC50 obs_value=300
molecule="O=S(=O)(NC1Cc2ccc(Br)cc2C1)c1cc(S(=O)(=O)c2ccccc2)ccc1C(F)(F)F (stereo not drawn)" target_of_assay="UniProtKB Q8N474" assay_readout=IC50 obs_value=110
molecule=N#Cc1cccc(N2CCC(NS(=O)(=O)c3cc(S(=O)(=O)c4ccccc4)ccc3C(F)(F)F)CC2)c1 target_of_assay="UniProtKB Q8N474" assay_readout=IC50 obs_value=800
molecule=COCCCNS(=O)(=O)c1cc(S(=O)(=O)c2ccccc2)ccc1C(F)(F)F target_of_assay="UniProtKB Q8N474" assay_readout=IC50 obs_value=400
molecule=Cc1nn(C)c(Cl)c1S(=O)(=O)c1ccc(C(C)C)c(S(=O)(=O)NC2CCOCC2)c1 target_of_assay="UniProtKB Q8N474" assay_readout=IC50 obs_value=1500
molecule=CCCc1ccc(S(=O)(=O)c2ccc(F)cc2)cc1S(=O)(=O)NCC1CCOCC1 target_of_assay="UniProtKB Q8N474" assay_readout=IC50 obs_value=1400
molecule=CC(C)c1ccc(S(=O)(=O)c2ccccc2)cc1S(=O)(=O)NCc1ccncc1 target_of_assay="UniProtKB Q8N474" assay_readout=IC50 obs_value=3000
molecule=Cc1ccc(S(=O)(=O)c2ccccc2)cc1S(=O)(=O)NC1CCN(C(=O)c2cccc(C#N)c2)CC1 target_of_assay="UniProtKB Q8N474" assay_readout=IC50 obs_value=2200
molecule=O=S(=O)(NCc1ccc(N2CCOCC2)nc1)c1cc(S(=O)(=O)c2ccccc2)ccc1C(F)(F)F target_of_assay="UniProtKB Q8N474" assay_readout=IC50 obs_value=500
molecule=COc1ccc(C(=O)N2CCC(NS(=O)(=O)c3cc(S(=O)(=O)c4ccccc4)ccc3C)CC2)cc1OC target_of_assay="UniProtKB Q8N474" assay_readout=IC50 obs_value=3000
molecule=CC(C)c1cc(C(C)C)c(S(=O)(=O)c2ccccc2)cc1S(=O)(=O)NCCc1ccncc1 target_of_assay="UniProtKB Q8N474" assay_readout=IC50 obs_value=1000
molecule=CC(C)c1ccc(S(=O)(=O)c2ccc(F)cc2)cc1S(=O)(=O)NC1CCN(Cc2ccccc2)CC1 target_of_assay="UniProtKB Q8N474" assay_readout=IC50 obs_value=1000
molecule=COc1ccc(NC(=O)N(C)CCNS(=O)(=O)c2cc(S(=O)(=O)c3ccccc3)ccc2C(F)(F)F)cc1 target_of_assay="UniProtKB Q8N474" assay_readout=IC50 obs_value=600
molecule=NCCCNS(=O)(=O)c1cc(S(=O)(=O)c2ccccc2)ccc1C(F)(F)F target_of_assay="UniProtKB Q8N474" assay_readout=IC50 obs_value=1500
molecule=CSc1ccc(C(=O)N2CCC(NS(=O)(=O)c3cc(S(=O)(=O)c4ccccc4)ccc3C(F)(F)F)CC2)cc1 target_of_assay="UniProtKB Q8N474" assay_readout=IC50 obs_value=170
molecule=CN(CCNS(=O)(=O)c1cc(S(=O)(=O)c2ccccc2)ccc1C(F)(F)F)C(=O)c1ccncc1 target_of_assay="UniProtKB Q8N474" assay_readout=IC50 obs_value=600
molecule="CCC(O)CNS(=O)(=O)c1cc(S(=O)(=O)c2ccc(F)cc2)ccc1C(C)C (stereo not drawn)" target_of_assay="UniProtKB Q8N474" assay_readout=IC50 obs_value=7000
molecule="CC(C)c1ccc(S(=O)(=O)c2ccccc2)cc1S(=O)(=O)NCC(O)c1ccccc1 (stereo not drawn)" target_of_assay="UniProtKB Q8N474" assay_readout=IC50 obs_value=400
molecule="NCCNS(=O)(=O)c1cc(S(=O)(=O)c2ccccc2)ccc1C(F)(F)F [Example 762, hydrochloride]" target_of_assay="UniProtKB Q8N474" assay_readout=IC50 obs_value=2100
molecule=CN(CCNS(=O)(=O)c1cc(S(=O)(=O)c2ccccc2)ccc1C(F)(F)F)C(=O)OCC(C)(C)C target_of_assay="UniProtKB Q8N474" assay_readout=IC50 obs_value=800
molecule=O=C(O)c1cccc(NC(=S)N2CCC(NS(=O)(=O)c3cc(S(=O)(=O)c4ccccc4)ccc3C(F)(F)F)CC2)c1 target_of_assay="UniProtKB Q8N474" assay_readout=IC50 obs_value=40
molecule=O=S(=O)(N[C@H]1CC[C@H](O)CC1)c1cc(S(=O)(=O)c2ccccc2)ccc1C(F)(F)F target_of_assay="UniProtKB Q8N474" assay_readout=IC50 obs_value=158
molecule=CCCCOC(=O)N(C)CCNS(=O)(=O)c1cc(S(=O)(=O)c2ccccc2)ccc1C(F)(F)F target_of_assay="UniProtKB Q8N474" assay_readout=IC50 obs_value=300
molecule=O=C([C@@H]1CCCN1C(=O)c1ccc(Cl)nc1)N1CCC(NS(=O)(=O)c2cc(S(=O)(=O)c3ccccc3)ccc2C(F)(F)F)CC1 target_of_assay="UniProtKB Q8N474" assay_readout=IC50 obs_value=40
molecule=C[C@@H](CO)NS(=O)(=O)c1cc(S(=O)(=O)c2ccccc2)ccc1C(F)(F)F target_of_assay="UniProtKB Q8N474" assay_readout=IC50 obs_value=500
molecule=CC(C)c1cc(C(C)C)c(S(=O)(=O)c2ccccc2)cc1S(=O)(=O)NCC1CCOCC1 target_of_assay="UniProtKB Q8N474" assay_readout=IC50 obs_value=1300
molecule="CC(C)c1ccc(S(=O)(=O)c2ccc(N3C[C@@H](C)NC[C@@H]3C)cc2)cc1S(=O)(=O)NC1CCOCC1 (relative stereo)" target_of_assay="UniProtKB Q8N474" assay_readout=IC50 obs_value=5000
